Catalogue of self-cleavage values
B1: Twister Ribozyme (parent)
chain: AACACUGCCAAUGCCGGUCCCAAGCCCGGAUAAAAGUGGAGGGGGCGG

Variants of: B1
Assay: self-cleavage, relative activity (ratio to wild type); higher = more cleavage; co-transcriptional
REPORTED METRIC: self-cleavage

# MUTATION NAME, READOUT VALUE
rows = [
    ("G24C G43C", 0.0497),
    ("C25G G44C", 0.248),
    ("A2C C5A", 0.0506),
    ("C5A G16A", 0.301),
    ("G28A G42C", 0.272),
    ("C3U G13A", 0.402),
    ("A2U G7A", 0.0893),
    ("G43C", 0.227),
    ("A1G G36A", 0.252),
    ("G7C C19G", 0.0745),
    ("G28U G42U", 0.238),
    ("G39A G48C", 0.532),
    ("C5A C14G", 0.0565),
    ("A4U G44C", 0.105),
    ("G45C C46A", 0.564),
    ("U12C C26A", 0.658),
    ("U18C G28A", 0.181),
    ("U37C G38C", 0.742),
    ("A1U A40C", 0.0671),
    ("G24U G47U", 0.0704),
    ("U37G G44A", 0.703),
    ("G24A G41U", 0.082),
    ("G7A U37C", 0.111),
    ("C8U U31A", 0.592),
    ("C3U C8U", 0.216),
]
